System: SK-MEL-2
Experiment: NCI tumour cell line growth inhibition, 48 h
The source made the active and inactive calls. No stated cut-off is given here; in the data, active = GI50 up to about 1.1 µM and inactive = higher.
measured_metric: GI50

Reported GI50 for "COc1ccccc1-n1cnc2c1=NC(C)(C)NC=2C(N)=O" was > 100 µM (inactive)

Reported GI50 for "COc1nc(C)nc2sc3c(c12)CCCC3" was > 100 µM (inactive)

Reported GI50 for COc1ccc(C(=O)C(c2ccc(OC)cc2)C2OC(=O)C(Cl)=C2Cl)cc1 (stereo not given) was > 100 µM (inactive)

Reported GI50 for "CC(C)(C)c1cc(C(C)(C)C)c(SSc2c(C(C)(C)C)cc(C(C)(C)C)c(O)c2O)c(O)c1O" was 14.4 µM (inactive)

Reported GI50 for "CC(=O)OCc1cc(=O)n2c([nH]c3ccccc32)c1C#N" was 76.6 µM (inactive)

Reported GI50 for "CC1(C)C=[N+]([O-])C(C)(C)N1" was > 100 µM (inactive)

Reported GI50 for C=C1C(=O)C23CC1C[C@H](OC(C)=O)C2C1(C)C(OC(C)=O)C[C@H](O)C(C)(C)[C@H]1C(O)[C@@H]3OC(C)=O (stereo not given in full) was 14.8 µM (inactive)

Reported GI50 for "C=C(C(=O)O)[C@@H]1C[C@@H]2O[C@H]1CC(C)=CCC/C(C)=C/CC[C@@]2(C)O" was > 100 µM (inactive)

Reported GI50 for CC1(c2cccc(C(F)(F)F)c2)CC(c2cccc(C(F)(F)F)c2)=C(C#N)C(=C(C#N)C#N)N1 (stereo not given) was 19.6 µM (inactive)

Reported GI50 for [N-]=[N+]=NC1C2CC3CC(C2)CC1C3 (stereo not given) was > 100 µM (inactive)

Reported GI50 for COCOCC1CCCN1CN1CCC[C@H]1COCOC (stereo not given in full) was > 100 µM (inactive)

Reported GI50 for "Cc1[nH]n(-c2nc3c(c(=O)[nH]2)CCC3)c(=O)c1CCO" was > 100 µM (inactive)

Reported GI50 for CCOC(=O)C(Cc1c(-c2[nH]c3ccccc3c2CC(NC(=O)CNC(C)=O)C(=O)OCC)[nH]c2ccccc12)NC(=O)CNC(C)=O (stereo not given) was 18.6 µM (inactive)

Reported GI50 for "O=C1C=CC2(C=C1)O[C@H](CCc1ccccc1)[C@@H](CCc1ccccc1)O2" was > 100 µM (inactive)

Reported GI50 for "COc1cc(OC)cc(-c2nc(O)c3ccccc3n2)c1" was > 100 µM (inactive)

* * *

System: OVCAR-4
Experiment: NCI tumour cell line growth inhibition, 48 h
The source made the active and inactive calls. No stated cut-off is given here; in the data, active = GI50 up to about 1.1 µM and inactive = higher.
Give measured GI50 for each item. Keep answers brief.

Value (GI50, OVCAR-4) for record "CC(=O)c1cccc(NC(=O)C(=O)NNc2nnc(S)n2N)c1" = 10.1 µM (inactive)

Value (GI50, OVCAR-4) for record "CCOC(=O)c1nc2ccc(OC)cc2c2c1Cc1ccccc1-2" = 49.8 µM (inactive)

Value (GI50, OVCAR-4) for record CC1(C)/C(=N\NC(N)=O)C2CCC1C2 (stereo not given) = > 100 µM (inactive)

Value (GI50, OVCAR-4) for record CC(=O)NC1C(CO)O[C@@H]2OC(C)(C)O[C@H]12 (stereo not given in full) = > 100 µM (inactive)

Value (GI50, OVCAR-4) for record C=C(Cl)C(=C)CCC(Cl)C(C)(C)Cl (stereo not given) = > 100 µM (inactive)

Value (GI50, OVCAR-4) for record "Nc1ccc(-c2nc3ccccc3s2)cc1Cl" = > 100 µM (inactive)

Value (GI50, OVCAR-4) for record CCOC(=O)C(Cc1c(-c2[nH]c3ccccc3c2CC(NC(=O)CNC(C)=O)C(=O)OCC)[nH]c2ccccc12)NC(=O)CNC(C)=O (stereo not given) = > 100 µM (inactive)

Value (GI50, OVCAR-4) for record "Cc1ccc(/C=C/C(=O)Oc2ccc(/C=C3\CCC/C(=C\c4ccc(OC(=O)/C=C/c5ccc(C)cc5)cc4)C3=O)cc2)cc1" = > 100 µM (inactive)

Value (GI50, OVCAR-4) for record "O=c1[nH]nc(-c2cccc([N+](=O)[O-])c2)[nH]1" = > 100 µM (inactive)

Value (GI50, OVCAR-4) for record "Cc1cc(N(CCC#N)CCC#N)ccc1C(/N=N/c1ccc(Cl)cc1)=N\NC(=O)c1cc(Cl)ccc1O" = 27.1 µM (inactive)

Value (GI50, OVCAR-4) for record "CC(C)(C)c1cc(C(C)(C)C)c(SSc2c(C(C)(C)C)cc(C(C)(C)C)c(O)c2O)c(O)c1O" = 3.55 µM (inactive)

Value (GI50, OVCAR-4) for record "Cc1noc(C)c1C1=CCCCc2ccccc21" = > 100 µM (inactive)

Value (GI50, OVCAR-4) for record Cn1c2c(c3ccccc31)CC(=O)N1CCCCC1C21OCCO1 (stereo not given) = > 100 µM (inactive)

Value (GI50, OVCAR-4) for record "CCOc1cc2oc(C)cc(=O)c2c(OC)c1/C=N/c1ccc(Cn2c(C)nc3ccccc32)cc1" = > 100 µM (inactive)

Value (GI50, OVCAR-4) for record CC(C)C(C/C=C1/CC(CO)(COC(=O)CC(C(C)C)C(C)C)OC1=O)C(C)C (stereo not given) = 17.3 µM (inactive)

* * *

Test system: K562
Experiment: NCI tumour cell line growth inhibition, 48 h
Active and inactive are the calls of the source. No stated cut-off is given here; in the data, active = GI50 up to about 1.1 µM and inactive = higher.
Give measured GI50 for each item. Keep answers brief.

Reported GI50 for "O=C(O)c1ccccc1SCc1cccc2c(=O)c3ccc(Cl)cc3oc12" was 27.7 µM (inactive)

Reported GI50 for "COc1ccc2nc3c(nc2c1)C(C)(C)C=C3c1ccc(Br)cc1" was > 10 µM (inactive)

Reported GI50 for COC(=O)C1CCC2(C)[C@H](CCC3O[C@]32C)[C@@]1(C)CC(=O)c1ccoc1 (stereo not given in full) was 46.1 µM (inactive)

Reported GI50 for "CC1(C)O[C@@H]2COC(=O)[C@@H]2O1" was > 100 µM (inactive)

Reported GI50 for O=C1CC(Br)c2c(Cl)sc(Cl)c21 (stereo not given) was 2.17 µM (inactive)

* * *

Test system: SN12C
Experiment: NCI tumour cell line growth inhibition, 48 h
Activity calls are given as the source filed them. Cut-off read from the data, not from the text of the source: active = GI50 up to about 1.1 µM and inactive = higher.
Give measured GI50 for each item. Keep answers brief.

Reported GI50 for COc1ccccc1C1CC(=O)CC(c2ccccc2OC)C12C(=O)NC(=S)NC2=O (stereo not drawn) was 65.8 µM (inactive)

Reported GI50 for "Cc1noc(C)c1C1=CCCCc2ccccc21" was > 100 µM (inactive)

Reported GI50 for COC(=O)c1c2c(cc3c1CC1(C3)Cc3cc4c(c(C(C)=O)c3C1)CCC4)C=CC2 (stereo not drawn) was > 31.6 µM (inactive)

* * *

Test system: CAKI-1
Experiment: NCI tumour cell line growth inhibition, 48 h
Activity calls are given as the source filed them. Cut-off read from the data, not from the text of the source: active = GI50 up to about 1.1 µM and inactive = higher.
Give measured GI50 for each item. Keep answers brief.

Reported GI50 for "O=C(O)C[C@@H](Cl)[C@H](NC(=O)OCc1ccccc1)C(=O)O" was > 100 µM (inactive)

Reported GI50 for "Clc1ccc(OCCSCCCCCCCCCCSCCOc2ccc(Cl)cc2)cc1" was > 100 µM (inactive)

Reported GI50 for "CC(C)(CN1CCCCC1)C(/C=C/c1ccc(Cl)cc1)=N\NC(=O)N/N=C(/C=C/c1ccc(Cl)cc1)C(C)(C)CN1CCCCC1" was 2.39 µM (inactive)

Reported GI50 for "O/N=C/c1cc2c(cc1Br)OCO2" was > 100 µM (inactive)

Reported GI50 for COC(=O)C12OCC34C(CC5C(C)C6=CC(=O)OC6=CC5(C)C3C(O)C1O)OC(=O)C(O)C24 (stereo unspecified) was 4.08 µM (inactive)

Reported GI50 for COCC1N=C(c2cc(OC)c(OC)c(OC)c2-c2cc3c(cc2[C@@H](C)O)OCO3)O[C@H]1c1ccccc1 (stereo partly specified) was 99.8 µM (inactive)

* * *

Test system: SK-OV-3
Assay: NCI tumour cell line growth inhibition, 48 h
The source made the active and inactive calls. Cut-off read from the data, not from the text of the source: active = GI50 up to about 1.1 µM and inactive = higher.
measured_metric: GI50

Reported GI50 for N#CC1C(=O)SC2c3ccccc3C(=O)c3ccccc3C12 (stereo not given) was > 10 µM (inactive)

Reported GI50 for "CN(CCc1ccccn1)c1ccc2c(c1)C(=O)c1ccccc1-2" was > 100 µM (inactive)

Reported GI50 for "Cn1ccnc1CCc1ccc(F)cc1F" was > 100 µM (inactive)

Reported GI50 for "O=C(/C=C/c1ccccc1)Oc1ccc(C(=O)/C=C/c2ccc(Cl)cc2)cc1" was > 100 µM (inactive)

Reported GI50 for "N#Cc1c(NC(=O)CCC(=O)O)ccc2ccccc12" was > 100 µM (inactive)

* * *

Test system: DMS-114
Test: NCI tumour cell line growth inhibition, 48 h
The source made the active and inactive calls. Rule as the data show it: active = GI50 up to about 1.1 µM and inactive = higher.
Select the correct class. Options are YES for active, NO for inactive and nothing else.

// param item: "C[C@H](C(=O)O)C(=O)NC(=O)N(Cc1ccccc1)N=O" ; yields the recorded call
NO

// param item: "Nc1c(S(=O)(=O)c2ccccc2)c2nc3ccccc3nc2n2c1nc1ccccc12" ; yields the recorded call
NO

// param item: CCCCCC1CC=CC(NC(=O)OCc2ccccc2)C1/C=C/CCCC1OCCO1 (stereo not drawn) ; yields the recorded call
NO

// param item: COc1cc(C2c3cc4c(cc3[C@@H](Nc3cccc([N+](=O)[O-])c3)C3COC(=O)[C@H]23)OCO4)cc(OC)c1O (stereo partly drawn) ; yields the recorded call
NO

// param item: COC(=O)C12OCC34C(CC5C(C)C6=CC(=O)OC6=CC5(C)C3C(O)C1O)OC(=O)C(O)C24 (stereo not drawn) ; yields the recorded call
YES

// param item: "Clc1ccc(OCCSCCCCCCCCCCSCCOc2ccc(Cl)cc2)cc1" ; yields the recorded call
NO

// param item: "Cc1ccc(NCCN(C)C)c2c(=O)c3cc(O)ccc3sc12" ; yields the recorded call
NO

// param item: "COc1ccc(N2C(=O)c3c(c4[nH]c5ccccc5c4c4ccc(C(C)(C)C)cc34)C2=O)cc1" ; yields the recorded call
NO

// param item: "O=S(=O)(/C=C/c1ccc(Cl)cc1Cl)Cc1ccccc1CS(=O)(=O)/C=C/c1ccc(Cl)cc1Cl" ; yields the recorded call
NO

// param item: "COc1cc2cc3c4c(cc(OC)c(OC)c4c2cc1OC)CCN3" ; yields the recorded call
NO

// param item: "O=C(O)C[C@@H](Cl)[C@H](NC(=O)OCc1ccccc1)C(=O)O" ; yields the recorded call
NO

// param item: O=S1(=O)c2ccccc2N=C(c2ccccc2Cl)CC1c1ccc(F)cc1 (stereo not drawn) ; yields the recorded call
NO

// param item: CN(C(=O)C12C3C4C1C1C2C3C41C(=O)C(C)(C)C)C(C)(C)C (stereo not drawn) ; yields the recorded call
NO

// param item: CC(c1ccccc1)N1CC(C)(c2ccccc2)N(O)C(c2ccccc2)C1C (stereo not drawn) ; yields the recorded call
NO

// param item: Nc1nc(F)nc2c1ncn2C1OC(COP(=O)(O)O)C(O)C1O (stereo not drawn) ; yields the recorded call
NO

// param item: "CC#CC(=O)Nc1ccccc1CC(c1c[nH]c2ccccc12)c1c[nH]c2ccccc12" ; yields the recorded call
NO

// param item: O=CC(O)C(O)C(O)COc1cc(CO)cc2c1C(=O)c1ccccc1C2=O (stereo not drawn) ; yields the recorded call
NO

// param item: OCC(O)C(OC1OC(CO)C(O)C(O)C1O)c1nn(-c2ccc(Cl)cc2)c2nc3cc(Cl)c(Cl)cc3nc12 (stereo not drawn) ; yields the recorded call
NO

// param item: "Cc1c(C(=O)CC(=O)C(=O)Nc2cc(Cl)ccc2Cl)[n+]([O-])c2ccccc2[n+]1[O-]" ; yields the recorded call
NO

// param item: "C=CCOC1=C2CC[C@H](O)[C@@]2(C)CCC1=O" ; yields the recorded call
NO

// param item: Nc1nc(SCc2ccc([N+](=O)[O-])cc2)nc2c1ncn2C1OC(CO)C(O)C1O (stereo not drawn) ; yields the recorded call
NO

// param item: "O=C(COc1ccccc1)NS(=O)(=O)c1ccccc1" ; yields the recorded call
NO

// param item: "Cc1ccc(S(=O)(=O)N/N=C/c2oc(-c3ccccc3Cl)c(-c3ccccc3Cl)c2[N+](=O)[O-])cc1" ; yields the recorded call
NO
